Each item that follows carries a reported % Inhibition of SDF-1 binding.
# measured on: T1, human CXCR4 (human, UniProt P61073 1-352)
# T1 construct: also called CXCR4 receptor; C-X-C chemokine receptor type 4
# assay overview: FACS, hybridoma supernatant pre-incubated with human CXCR4 transfected HEK293T cells, competitor Alexa-647 SDF-1
Report as a plain number; the unit % is understood.

As a guide, the following entries are already answered.
binder	measured attribute	test value
7C8 (antibody, V domains shown, Fully human monoclonal antibody from XenoMouse hybridoma) VH: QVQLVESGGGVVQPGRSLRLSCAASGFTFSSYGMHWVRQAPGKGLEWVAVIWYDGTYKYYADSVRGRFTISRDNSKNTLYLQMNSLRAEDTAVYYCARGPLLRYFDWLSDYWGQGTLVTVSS VL: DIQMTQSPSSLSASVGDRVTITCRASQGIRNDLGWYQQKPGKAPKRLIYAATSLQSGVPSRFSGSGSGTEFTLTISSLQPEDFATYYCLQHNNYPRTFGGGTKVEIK	% Inhibition of SDF-1 binding	75
2A4 (antibody, V domains shown, Fully human monoclonal antibody from XenoMouse hybridoma; also called mAb 2A4; Mab2A4) VH: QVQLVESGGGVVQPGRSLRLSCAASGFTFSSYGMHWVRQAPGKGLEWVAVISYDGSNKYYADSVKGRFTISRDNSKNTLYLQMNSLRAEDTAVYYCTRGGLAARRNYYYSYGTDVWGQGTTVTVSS VL: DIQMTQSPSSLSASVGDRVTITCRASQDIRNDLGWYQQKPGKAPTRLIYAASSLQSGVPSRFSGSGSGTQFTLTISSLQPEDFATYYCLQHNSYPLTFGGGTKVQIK	% Inhibition of SDF-1 binding	42
4C1 (antibody, V domains shown, Fully human monoclonal antibody from XenoMouse hybridoma (strains XMG2 IgG2 or XMG4 IgG4, kappa/lambda); Tested as hybridoma supernatant or purified antibody; also called mAb 4C1; Mab4C1) VH: QVQLVESGGGVVQPGRSLRLSCAASGFTFSSYGMHWVRQAPGKGLEWVAVISYDGSNKYYADSVKGRFTISRDNSKNTLYLQMNSLRAEDTAVYYCTRGGLAARRNYYYSYGMDVWGQGTTVTVSS VL: DIQMTQSPSSLSASVGDRVTITCRASQDIRNDLGWYQQKPGKAPKRLIYAASSLQSGVPSRFSGSGSGTQFTLTISSLQPEDFATYYCLQHNSYPLTFGGGTKVQIK	% Inhibition of SDF-1 binding	35
5C9 (antibody, V domains shown, Fully human monoclonal antibody from XenoMouse hybridoma (lambda light chain)) VH: QVQLVESGGGVVQPGRSLRLSCAASGFTFSSYGLHWVRQSPGKGLEWVAVISYDGSKKYYADSVKGRFSISRDNSKNTLYLQMNSLRAEDTAVYYCARDRPSRYSSCMDVWGQGTTVTVSS VL: QSALTQPASVSGSPGQSITISCTGTSSDVGSNNFVSWYQQHPGKAPKLMIYEVSKRPSGVSNRFSGSKSGNTASLTISGLQAEDEADYYCCSYAGSNTLVFGGGTKLTVL	% Inhibition of SDF-1 binding	-1

Ask: % Inhibition of SDF-1 binding for 6C7 (antibody, V domains shown, Fully human monoclonal antibody from XenoMouse hybridoma; also called antibody 6C7; mAb 6C7) VH: QVQLVESGGGVVQPGRSLRLSCAASGFTFSNYVMHWVRQAPGKGLEWVAVIWYDGSNKYYADSVKGRFTISRDNSKNTLSLQMNSLRAEDTAVYYCERGEGYYGSGSRYRGYYYGMDVWGQGTTVTVSS VL: DIQMTQSPSSLSASVGDRVTITCRASQGIRTDLGWYQQKPGKAPKRLIYAASSLQSGVPSRFSGSGSGTEFTLTISSLQPEDFATYYCLQHNSYPRTFGQGTKVEIK ?
Result: 88
